organism: Homo sapiens; assay: Selectivity ratio of EC50 for human V1b receptor to EC50 for human OTR
Numbered stars: 1 amine (or outer) side, 2 acyl side, 3 side chain; on linkers, the order of the positions; unused ones are H or OH. Bridge positions count the residues as written; N and C are the ends. Square brackets hold non-standard residues; d marks the D form. Peptide text beside a SMILES is read from it. Hyp = O=C(O)[C@@H]1C[C@@H](O)CN1; tBuAla = CC(C)(C)C[C@H](N)C(=O)O; X1 = O=C(CCC[*:2])[*:1]; Mpa = O=C(O)CCS
EXPERIMENTAL ENDPOINT: Ratio EC50

| COMPOUND | Ratio EC50 |
| --- | --- |
| CC[C@H](C)[C@@H]1NC(=O)[C@H](Cc2ccc(O)cc2)NC(=O)CCSSC[C@@H](C(=O)N[C@@H](CC(C)C)C(=O)N[C@@H](CC(C)C)C(=O)NCC(N)=O)NC(=O)[C@H](CC(N)=O)NC(=O)[C@H](CCC(N)=O)NC1=O ([Mpa]YIQNCLLG-NH2; disulfide 1-6) | > 10 |
| CC[C@H](C)[C@@H]1NC(=O)[C@H](Cc2ccc(O)cc2)NC(=O)CCSSC[C@@H](C(=O)N2CCC[C@H]2C(=O)N[C@@H](CC(C)(C)C)C(=O)NCC(N)=O)NC(=O)[C@H](CC(N)=O)NC(=O)[C@H](CCC(N)=O)NC1=O | > 10000 |
| CC[C@H](C)[C@@H]1NC(=O)[C@H](Cc2ccc(O)cc2)NC(=O)CCCSC[C@@H](C(=O)N2C[C@H](O)C[C@H]2C(=O)N[C@@H](CC(C)(C)C)C(=O)NCC(N)=O)NC(=O)[C@H](CC(N)=O)NC(=O)[C@H](CCC(N)=O)NC1=O (YIQNC[Hyp][tBuAla]G-NH2; linker N-5 via X1) | > 10000 |
| CC(C)C[C@H](NC(=O)[C@@H]1CCCN1C(=O)[C@@H]1CSSCCC(=O)N[C@@H](Cc2ccc(O)cc2)C(=O)N[C@@H](C)C(=O)N[C@@H](CCC(N)=O)C(=O)N[C@@H](CC(N)=O)C(=O)N1)C(=O)NCC(N)=O ([Mpa]YAQNCPLG-NH2; disulfide 1-6) | > 10 |

Kindly consider the entry below.
Query: Return reported Ratio EC50. Input compound: CC[C@H](C)[C@@H]1NC(=O)[C@H](Cc2ccc(O)cc2)NC(=O)CCSSC[C@@H](C(=O)N2CCC[C@H]2C(=O)N[C@@H](CC(C)C)C(=O)N[C@@H](CC(C)C)C(N)=O)NC(=O)[C@H](CC(N)=O)NC(=O)[C@H](CCC(N)=O)NC1=O ([Mpa]YIQNCPLL-NH2; disulfide 1-6)
Response: > 10

---

Could you please report measured pEC50 for the items listed next?
target: Vasopressin V1b receptor (Homo sapiens); experiment: Agonist activity at human V1b receptor expressed in CHO cells assessed as calcium mobilization measured after 30 mins by Fluo-4-AM dye based FLIPR assay
Sequence (P47901 whole entry): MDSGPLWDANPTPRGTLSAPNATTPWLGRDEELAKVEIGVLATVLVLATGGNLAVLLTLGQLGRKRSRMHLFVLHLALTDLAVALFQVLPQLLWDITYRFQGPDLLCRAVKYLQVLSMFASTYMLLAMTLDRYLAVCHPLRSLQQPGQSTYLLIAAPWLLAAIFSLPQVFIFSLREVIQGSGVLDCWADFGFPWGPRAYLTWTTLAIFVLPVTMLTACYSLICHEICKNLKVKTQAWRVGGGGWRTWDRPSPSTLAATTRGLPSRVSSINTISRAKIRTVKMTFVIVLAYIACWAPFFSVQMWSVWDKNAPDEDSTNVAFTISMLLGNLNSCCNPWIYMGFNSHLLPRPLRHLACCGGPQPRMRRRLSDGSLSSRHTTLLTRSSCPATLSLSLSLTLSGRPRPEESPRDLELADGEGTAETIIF
pEC50: −log10 of the molar value. Bridge positions count the residues as written; N and C are the ends. Square brackets hold non-standard residues; d marks the D form. Peptide text beside a SMILES is read from it. NMeS = CN[C@@H](CO)C(=O)O; Mpa = O=C(O)CCS; Sar = CNCC(=O)O

Worked examples, 6 compounds total:
| COMPOUND | pEC50 |
| --- | --- |
| CC[C@H](C)[C@@H]1NC(=O)[C@H](Cc2ccc(O)cc2)NC(=O)CCSSC[C@@H](C(=O)N2CCC[C@H]2C(=O)N[C@@H](CC(C)C)C(=O)N[C@@H](CC(C)C)C(N)=O)NC(=O)[C@H](CC(N)=O)NC(=O)[C@H](CCC(N)=O)NC1=O ([Mpa]YIQNCPLL-NH2; disulfide 1-6) | < 7.00 |
| CC[C@H](C)[C@@H]1NC(=O)[C@H](Cc2ccc(O)cc2)NC(=O)CCSSC[C@@H](C(=O)N2CCC[C@H]2C(=O)N[C@@H](CC(C)C)C(=O)N[C@@H](C)C(N)=O)NC(=O)[C@H](CC(N)=O)NC(=O)[C@H](CCC(N)=O)NC1=O ([Mpa]YIQNCPLA-NH2; disulfide 1-6) | < 7.00 |
| CC(C)C[C@@H]1NC(=O)[C@H](Cc2ccc(O)cc2)NC(=O)CCSSC[C@@H](C(=O)N2CCC[C@H]2C(=O)N[C@@H](CC(C)C)C(=O)NCC(N)=O)NC(=O)[C@H](CC(N)=O)NC(=O)[C@H](CCC(N)=O)NC1=O ([Mpa]YLQNCPLG-NH2; disulfide 1-6) | 8.41 |
| CC[C@H](C)[C@@H]1NC(=O)[C@H](Cc2ccc(O)cc2)NC(=O)CCSSC[C@@H](C(=O)N(C)[C@@H](CO)C(=O)N[C@@H](CC(C)C)C(=O)NCC(N)=O)NC(=O)[C@H](CC(N)=O)NC(=O)[C@H](CCC(N)=O)NC1=O ([Mpa]YIQNC[NMeS]LG-NH2; disulfide 1-6) | < 7.00 |
| CC[C@H](C)[C@@H]1NC(=O)[C@H](Cc2ccc(O)cc2)NC(=O)CCSSC[C@@H](C(=O)N2CCC[C@H]2C(=O)N[C@@H](CC(C)C)C(=O)NCC(N)=O)NC(=O)[C@H](CC(N)=O)NC(=O)[C@H](Cc2ccccc2)NC1=O ([Mpa]YIFNCPLG-NH2; disulfide 1-6) | < 7.00 |
| CC[C@H](C)[C@@H]1NC(=O)[C@H](Cc2ccc(O)cc2)NC(=O)CCSSC[C@@H](C(=O)N(C)CC(=O)N[C@@H](CC(C)C)C(=O)NCC(N)=O)NC(=O)[C@H](CC(N)=O)NC(=O)[C@H](CCC(N)=O)NC1=O ([Mpa]YIQNC[Sar]LG-NH2; disulfide 1-6) | < 7.00 |

Switching to the query record.
Query: Output pEC50 of CC[C@H](C)[C@@H]1NC(=O)[C@H](Cc2ccc(O)cc2)NC(=O)CCSSC[C@@H](C(=O)N2C[C@@H](O)C[C@H]2C(=O)N[C@@H](CC(C)C)C(=O)NCC(N)=O)NC(=O)[C@H](CC(N)=O)NC(=O)[C@H](CCC(N)=O)NC1=O
Response: 8.09

---

Molecular target: Oxytocin receptor (Homo sapiens)
Sequence (P30559 whole entry): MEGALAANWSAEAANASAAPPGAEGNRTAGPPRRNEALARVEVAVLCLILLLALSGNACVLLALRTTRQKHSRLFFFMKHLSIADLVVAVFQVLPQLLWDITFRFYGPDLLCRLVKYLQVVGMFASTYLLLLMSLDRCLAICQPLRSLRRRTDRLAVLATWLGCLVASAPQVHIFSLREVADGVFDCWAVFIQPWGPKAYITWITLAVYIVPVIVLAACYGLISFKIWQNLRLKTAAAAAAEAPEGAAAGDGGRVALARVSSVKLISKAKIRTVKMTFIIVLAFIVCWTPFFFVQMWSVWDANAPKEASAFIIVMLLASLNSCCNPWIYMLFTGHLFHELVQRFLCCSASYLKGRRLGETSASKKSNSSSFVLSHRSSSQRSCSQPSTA
Assay: Agonist activity at human OTR expressed in CHO cells assessed as calcium mobilization measured after 30 mins by Fluo-4-AM dye based FLIPR assay
Numbered stars: 1 amine (or outer) side, 2 acyl side, 3 side chain; on linkers, the order of the positions; unused ones are H or OH. Bridge positions count the residues as written; N and C are the ends. Square brackets hold non-standard residues; d marks the D form. Peptide text beside a SMILES is read from it. tBuAla = CC(C)(C)C[C@H](N)C(=O)O; X1 = O=C(CCC[*:2])[*:1]; Mpa = O=C(O)CCS
Please provide measured EC50 for the entries that follow.
One number for each entry, in nM.

Consider the worked cases shown below.
| MOLECULE | EC50, nM |
| --- | --- |
| CC(C)C[C@H](NC(=O)[C@@H]1CCCN1C(=O)[C@@H]1CSSCCC(=O)N[C@@H](Cc2ccc(O)cc2)C(=O)N[C@@H](Cc2ccccc2)C(=O)N[C@@H](CCC(N)=O)C(=O)N[C@@H](CC(N)=O)C(=O)N1)C(=O)NCC(N)=O ([Mpa]YFQNCPLG-NH2; disulfide 1-6) | 0.11 |
| CC[C@H](C)[C@@H]1NC(=O)[C@H](Cc2ccc(O)cc2)NC(=O)CCSSC[C@@H](C(=O)N2CCC[C@H]2C(=O)N[C@@H](CC(C)C)C(=O)NCC(N)=O)NC(=O)[C@H](CO)NC(=O)[C@H](CCC(N)=O)NC1=O ([Mpa]YIQSCPLG-NH2; disulfide 1-6) | 12 |
| CC[C@H](C)[C@@H]1NC(=O)[C@H](Cc2ccc(O)cc2)NC(=O)CCSSC[C@@H](C(=O)N2CCC[C@H]2C(=O)N[C@@H](CC(C)C)C(=O)N[C@@H](CC(C)C)C(N)=O)NC(=O)[C@H](CC(N)=O)NC(=O)[C@H](CCC(N)=O)NC1=O ([Mpa]YIQNCPLL-NH2; disulfide 1-6) | 1.6 |
| CC[C@H](C)[C@@H]1NC(=O)[C@H](Cc2ccc(O)cc2)NC(=O)CCCSC[C@@H](C(=O)N2CCC[C@H]2C(=O)N[C@@H](CC(C)(C)C)C(=O)NCC(N)=O)NC(=O)[C@H](CC(N)=O)NC(=O)[C@H](CCC(N)=O)NC1=O (YIQNCP[tBuAla]G-NH2; linker N-5 via X1) | 0.0065 |

Next item in the queue.
Query: Could you please provide reported EC50 for CC[C@H](C)[C@@H]1NC(=O)[C@H](Cc2ccc(O)cc2)NC(=O)CCSSC[C@@H](C(=O)N2CCC[C@H]2C(=O)N[C@@H](CC(C)C)C(=O)NCC(N)=O)NC(=O)[C@H](CC(N)=O)NC(=O)[C@H](CO)NC1=O ([Mpa]YISNCPLG-NH2; disulfide 1-6) ? Thanks!
Response: 0.072

src = ChEMBL document CHEMBL4017483
